Tested on: NCI-H322M lung
Test: NCI-60 one-dose screen, 48 h (100 = growth as untreated, 0 = no growth, -100 = all killed)
Conditions: 10 µM unless noted
The panel holds about 83,000 compounds, 20% with a hit somewhere; the sample as a whole holds those more often. Active and inactive are the calls of the source. How the source made its calls: active means growth percent below 10; inactive means the rest.
MEASUREMENT LABEL: growth

query: Would you kindly share the measured growth for Cc1cc(N2CCSCC2)nc(NC2CCCC(Nc3ccnc4cc(Cl)ccc34)C2)n1 (stereo not given) ?
result: -28.8% (active)

query: Next molecule: N#Cc1c(-c2ccc(Cl)cc2)nc(N/N=C/c2cccc(Br)c2)nc1N1CCOCC1
result: 90.6% (inactive)

query: Next molecule: COc1ccc(S(=O)(=O)N2CC3(COC3)C2)cc1NC(=O)c1[nH]c(C)c2c1CCCCC2=O
result: 56.3% (inactive)

query: Next molecule: O=C(COc1cccc(/C=C2\COc3ccc(Cl)cc3C2=O)c1)c1ccc(Cl)cc1
result: 98.2% (inactive)

query: Next molecule: Cc1cc(C)nc(SC2=C(Nc3cc(Cl)ccc3O)C(=O)N(Cc3ccccc3)C2=O)n1
result: -32% [30 µM] (active)

query: Next molecule: O=C(O)COc1ccc(Cl)cc1C1CCCCC1
result: 101% (inactive)

query: Next molecule: O=C(N/N=C/c1ccccc1O)c1ccccc1Nc1ccnc(C(F)(F)F)c1
result: 13.1% (inactive)

query: Next molecule: Cc1ccc2c(c1)C(=O)/C(=C/c1cccc(OCC(=O)c3ccc(Cl)cc3)c1)CS2
result: 72.9% (inactive)

query: Next molecule: CSc1ccc(SC2c3ccc(C)cc3Oc3nc(N)c(C#N)c(N)c32)cc1 (stereo not given)
result: -20.9% (active)

query: Next molecule: COc1ccc2c(c1)CC/C(=C\c1cncc(Br)c1)C2=O
result: 106% (inactive)

query: Next molecule: O=C1c2cc3c(cc2-c2c1c1ccc(F)cc1c(=O)n2C[C@H](O)[C@@H](O)[C@H](O)CO)OCO3
result: 13% (inactive)

query: Next molecule: COc1ccc2c(c1)C(=O)/C(=C/c1cccnc1)CC2
result: 106% (inactive)

query: Next molecule: N#CCCN=Nc1c(O)[nH]c2ccc(F)cc12
result: 103% (inactive)

query: Next molecule: CC(=O)OC[C@H]1O[C@H](OC(C)=O)[C@H](NC(=O)/C=C/CCl)[C@@H](OC(C)=O)[C@@H]1OC(C)=O
result: 84.5% (inactive)

query: Next molecule: COc1cc(/C=C/c2cc(/C=C/c3ccc(O)c(OC)c3)n(-c3c(C)cccc3C)c(=O)n2)ccc1O
result: 15.9% (inactive)

query: Next molecule: Cc1ccc(C2Oc3ccccc3C3CC(c4cccs4)=NN32)cc1 (stereo not given)
result: 91.5% (inactive)

query: Next molecule: COc1cccc(-c2nn(C(C)(C)C)cc2-c2ccnc(NCCCNS(=O)(=O)c3ccc(C)cc3)c2)c1
result: 106% (inactive)

query: Next molecule: CCOc1nc(-c2ccccc2)cc2c(O)c(C(=O)O)[nH]c(=O)c12
result: 147% (inactive)

query: Next molecule: N#C/C(=C\c1ccc(-c2cc(C(F)(F)F)ccc2Cl)o1)c1nc(-c2ccco2)cs1
result: 103% (inactive)

query: Next molecule: COc1cc(-c2nc3ccccc3[nH]2)ccc1OCc1nnc(-c2ccc(CC(C)C)cc2)o1
result: 93.8% (inactive)
